assay: 31-day mouse repeat-dose toxicology study; format: in vivo, mice; details: mouse, in vivo; CD-1 mice, 31-day dosing; read-out: no adverse effect level (NOAEL)
Where a SMILES comes first, the peptide text is derived from it.
QUANTITY: NOAEL

For the compound CC[C@H](C)[C@H](N)C(=O)NCC(=O)N[C@@H](CC(C)C)C(=O)N[C@@H](Cc1c[nH]cn1)C(=O)N[C@@H](CC(=O)O)C(=O)N1CCC[C@H]1C(=O)N[C@@H](CO)C(=O)N[C@@H](Cc1c[nH]cn1)C(=O)NCC(=O)N[C@H](C(=O)N[C@@H](CC(C)C)C(=O)N1CCC[C@H]1C(=O)N[C@@H](CC(N)=O)C(=O)NCC(=O)N[C@@H](CO)C(=O)O)[C@@H](C)O [INGAP Peptide] (H-IGLHDPSHGTLPNGS-OH) , what NOAEL is on record?
> 100 mg/kg

This collection of values is drawn from patent US20080171704A1.
